system: SNB-19; assay: NCI tumour cell line growth inhibition, 48 h
Calls of active or inactive are those of the source. Rule as the data show it: active = GI50 up to about 1.1 µM and inactive = higher.
TEST READOUT: GI50

molecule="O=P(CCOc1ccccc1OCCP(=O)(c1ccccc1)c1ccc2c(c1)OCCOCCOCCOCCO2)(c1ccccc1)c1ccc2c(c1)OCCOCCOCCOCCO2 (stereo unspecified)" observed_value="> 100 µM (inactive)"
molecule=O=C1CCC[C@@H]2NC[C@@H](c3ccc4c(c3)OCO4)[C@H]12 observed_value="> 25 µM (inactive)"
molecule=CCOC(=N)CC(=O)Nc1ccccc1CC observed_value="> 100 µM (inactive)"
molecule="CC1(C)OC(CCC#N)CN1C(=O)OCc1ccccc1 (stereo unspecified)" observed_value="9.57 µM (inactive)"
molecule=O=c1c2cc(Cl)ccc2[nH]c2cc(O)cc(O)c12 observed_value="> 10 µM (inactive)"
molecule=COC(=O)c1ccc(Cc2cc(Cc3ccc(C(=O)OC)cc3)cc(Cc3ccc(C(=O)OC)cc3)c2)cc1 observed_value="> 25 µM (inactive)"
molecule="CC(C(=O)N1c2ccccc2Sc2ccccc21)N1c2ccccc2Sc2ccccc21 (stereo unspecified)" observed_value="> 100 µM (inactive)"
molecule=O=C(CCn1[nH]c(=O)c(Cl)c(Cl)c1=O)NNC(=O)C[n+]1ccccc1 observed_value="> 100 µM (inactive)"
molecule="CC(C)c1cc(OCC(O)CO)cc(C(C)C)c1 (stereo unspecified)" observed_value="> 100 µM (inactive)"
molecule="COc1ccc(/C=C2\\CCC(C)/C(=C\\c3ccc(OC)c(OC)c3)C2=O)cc1OC (stereo unspecified)" observed_value="11.2 µM (inactive)"
molecule=O=C(/C=C/c1c[nH]c2ccccc12)c1ccccc1O observed_value="16.5 µM (inactive)"
molecule=c1cc(CN2CCNCCNCCNCC2)cc(CN2CCNCCNCCNCC2)c1 observed_value="> 100 µM (inactive)"
molecule=CC(=O)O[C@H]1/C(=C/c2ccncc2)C[C@H]2[C@@H]3CC=C4C[C@@H](N5CCCC5)CC[C@]4(C)[C@H]3CC[C@]12C observed_value="16.9 µM (inactive)"
molecule=O=C(O)CN(c1ccccc1)S(=O)(=O)c1ccc(NC(=O)c2ccccc2)cc1 observed_value="> 100 µM (inactive)"
molecule=Brc1ccc2c3c1[C@H]1O[C@H]1c1cccc(c1-3)[C@@H]1O[C@H]21 observed_value="18 µM (inactive)"
molecule="N#C[BH2-][n+]1cn(C2CC(O)C(COP(=O)(O)OC3CC(n4cnc5c(N)ncnc54)OC3CO)O2)c2nc(N)[nH]c(=O)c21 (stereo unspecified)" observed_value="> 100 µM (inactive)"
molecule="CC(C)CC(NC(=O)OCc1ccccc1)C(=O)NCCCCC(N)C(=O)NC(CCCCNC(=O)C(CC(C)C)NC(=O)OCc1ccccc1)C(=O)NC(CCCCNC(=O)C(CC(C)C)NC(=O)OCc1ccccc1)C(=O)NC(CCCCNC(=O)C(CC(C)C)NC(=O)OCc1ccccc1)C(=O)NC(CCCCNC(=O)C(CC(C)C)NC(=O)OCc1ccccc1)C(=O)NC(CCCCNC(=O)C(CC(C)C)NC(=O)OCc1ccccc1)C(=O)O (stereo unspecified)" observed_value="> 100 µM (inactive)"
molecule="CC(=O)OCC1OC(Sc2ccccn2)C=CC1OC(C)=O (stereo unspecified)" observed_value="> 100 µM (inactive)"
molecule="CC(=O)O[C@H]1CCC2[C@@H]3CCC4NC(=O)C(C#N)C[C@]4(C)C3CC[C@@]21C (stereo partly specified)" observed_value="> 10 µM (inactive)"
molecule="CC(C(N)=O)N(C)C(=O)c1cc2ccccc2[n+](Cc2ccccc2)c1 (stereo unspecified)" observed_value="> 100 µM (inactive)"
molecule="C=C(C)C(=O)O[C@H]1C[C@@]23O[C@@H]2CCC(=C[C@H]2OC(=O)C(=C)[C@H]12)COC3O (stereo partly specified)" observed_value="> 100 µM (inactive)"
molecule="Cc1cc2nnn(C3CCCCO3)c2cc1C (stereo unspecified)" observed_value="> 100 µM (inactive)"
molecule="C[C@@H]1C(=O)CC2C(C)(C)CCC[C@]2(C)[C@@]12CC[C@]1(C=COC1)O2 (stereo partly specified)" observed_value="61 µM (inactive)"
molecule="COCOC1/C=C/CCCC#C[C@H](C)C(=O)CC1 (stereo partly specified)" observed_value="17.9 µM (inactive)"
molecule=O=c1c(O)c(-c2ccccc2)n(O)c2ccc(Cl)cc12 observed_value="34.2 µM (inactive)"
molecule="Cc1ccc(NC(=O)CCC(=O)C(C#N)c2ccc(Cl)cc2)cc1C (stereo unspecified)" observed_value="> 100 µM (inactive)"
molecule=CCOC(=O)c1cc(-c2ccn(C(C)=O)c2)c(-c2cc(C)co2)[nH]1 observed_value="> 100 µM (inactive)"
molecule="COc1cccc(CC(C)N)c1 (stereo unspecified)" observed_value="> 100 µM (inactive)"
molecule=O=C(Nc1ccccc1)n1[nH]c(=O)n(-c2ccccc2)c1=O observed_value="> 100 µM (inactive)"
molecule=CN(C)/N=N/c1nc2c(c(=O)n(C)c(=O)n2C)n1C observed_value="> 100 µM (inactive)"
molecule=COc1cccc(/C=N/[N+](C)(C)C)c1O observed_value="> 10 µM (inactive)"
molecule="CC1CC(C)C(C(O)CC2CC(=O)N(c3ccccc3)C(=O)C2)C(O)C1 (stereo unspecified)" observed_value="> 100 µM (inactive)"
molecule=O=c1[nH]c2c(Nc3c4ccccc4nc4ccccc34)c([N+](=O)[O-])c(Nc3c4ccccc4nc4ccccc34)c([N+](=O)[O-])c2[nH]1 observed_value="2.64 µM (inactive)"
molecule=COC(=O)c1c(O)ccc2c1c1c(n2Cc2ccccc2)C(=O)c2ccccc2C1 observed_value="95.5 µM (inactive)"
molecule="CC1C2C=CC1C(c1c3ccc(=O)c(O)c-3oc3c(O)c(O)ccc13)C2C(=O)O (stereo unspecified)" observed_value="> 100 µM (inactive)"
molecule=CS(=O)(=O)c1ccc(-c2cc(-c3ccc(S(C)(=O)=O)cc3)[n+](-c3cc(-c4ccccc4)c([O-])c(-c4ccccc4)c3)c(-c3ccc(S(C)(=O)=O)cc3)c2)cc1 observed_value="> 100 µM (inactive)"

----------
system: SF-295; assay: NCI tumour cell line growth inhibition, 48 h
Active and inactive are the calls of the source. Rule as the data show it: active = GI50 up to about 1.1 µM and inactive = higher.
Outcomes: active, inactive

molecule=NC(=O)c1ncn2c1NC(=O)CC2 class_label=inactive
molecule="Cc1cc2nc3n(c2cc1C)C(c1c(F)cccc1F)SC3 (stereo unspecified)" class_label=inactive
molecule=COc1cc(N(C)C)ccc1C=c1c2ccccc2n2c1cc(-c1ccccc1)[n+]2C class_label=active
molecule=CCCCCCCCCCCCCCCC(=O)OCCOCCOCCOCCOCCOC(=O)CCCCCCCCCCCCCCC class_label=inactive
molecule=On1c(-c2ccccc2)c(-c2ccccc2N2CCCC2)c2ccccc21 class_label=inactive
molecule="COC(=O)C1CC/C(=N/c2ccc(C)cc2C)N1 (stereo unspecified)" class_label=inactive

----------
system: K562; assay: NCI tumour cell line growth inhibition, 48 h
Activity calls are given as the source filed them. Rule as the data show it: active = GI50 up to about 1.1 µM and inactive = higher.
Outcomes: true (1) (active), false (0) (inactive)

compound="CC1(C)CCCCC1/C=C/C(CC(O)(C(F)(F)F)C(F)(F)F)=N\\Nc1ccc([N+](=O)[O-])cc1[N+](=O)[O-] (stereo unspecified)" class_label="true (1)"
compound="C=CC1(CC)/C(=N\\O)C(CC)(CC)C(=O)N1O (stereo unspecified)" class_label="false (0)"
compound=COC(=O)c1c[nH]cc1CCc1c[nH]cc1C(=O)OC class_label="false (0)"
compound="CN1C(c2ccccc2)CC(O)CC1c1ccccc1 (stereo unspecified)" class_label="false (0)"
compound="O=C(CC(C(=O)c1ccsc1)c1ccc2c(c1)OCO2)c1ccccc1 (stereo unspecified)" class_label="false (0)"
compound=CCOP(=O)(CN1CCNCCNCC1)OCC class_label="false (0)"

----------
system: Malme-3M; assay: NCI tumour cell line growth inhibition, 48 h
Active and inactive are the calls of the source. Rule as the data show it: active = GI50 up to about 1.1 µM and inactive = higher.
TEST READOUT: GI50

molecule=COc1ccccc1-n1c(=O)n(C)c(=O)n1C(C)(C)C test_readout=GI50 observed_value="> 100 µM (inactive)"
molecule=COC(=O)c1ccc(Cc2cc(Cc3ccc(C(=O)OC)cc3)cc(Cc3ccc(C(=O)OC)cc3)c2)cc1 test_readout=GI50 observed_value="> 25 µM (inactive)"
molecule=O=C(CC(O)(C(F)(F)F)C(F)(F)F)c1cc(CC(=O)C(O)(C(F)(F)F)C(F)(F)F)cc(CC(=O)C(O)(C(F)(F)F)C(F)(F)F)c1 test_readout=GI50 observed_value="2.01 µM (inactive)"
molecule="COc1ccc2c3c1OC1C4(CCC5C(C2)N(CC2CC2)CCC351)OCCO4 (stereo not given)" test_readout=GI50 observed_value="> 100 µM (inactive)"
molecule=c1cc(CN2CCNCCNCCNCC2)cc(CN2CCNCCNCCNCC2)c1 test_readout=GI50 observed_value="> 100 µM (inactive)"
